Values were extracted from patent US20250161476A1.

test.name: Plasma stability of payloads and linker-payloads, human plasma
Type: in vitro ADME
run.parameters: human plasma, tested for 3 days (C); read-out: Human plasma stability assay T½
quantity: half-life

compound	recorded.measurement
CCc1cc(OCCCCn2cc(COCCOCCOCCOCCOCCOCCOCCOCCNC(=O)CCC(=O)N3Cc4ccccc4-c4nn[nH]c4-c4ccccc43)nn2)ccc1-c1ccc(C[C@H](NC(=O)[C@H](CC(=O)O)NC(=O)[C@H](CO)NC(=O)[C@@H](NC(=O)[C@](C)(Cc2ccccc2F)NC(=O)[C@@H](NC(=O)CNC(=O)[C@H](Cc2nn[nH]n2)NC(=O)C(C)(C)C(=O)NCCc2cnc[nH]2)[C@@H](C)O)[C@@H](C)O)C(=O)N[C@@H](CCCc2cc(C)cc(C)c2)C(N)=O)cc1 [LP28, triazole-DIBAC-suc-PEG8-triazole-P8]	> 173 h
